Origin of the recorded values: ChEMBL document CHEMBL3632472

# MEASUREMENT_TARGET: UniProtKB O75908
# PROTOCOL_DETAILS: Inhibition of human ACAT2 expressed in CHO cells assessed as inhibition of [3H]cholesterol ester accumulation at 5 uM in presence of 0.1 mM [3H]oleate-conjugated BSA
# Type: cell-based
Calls of active or inactive are those of the source. No cut-off for these calls is given here.

{"QUERY_SMILES": "O=C1NCCc2cc(Br)c(O)c(c2)Oc2c(Br)cc(cc2Br)[C@H](O)CNC(=O)/C(=N/O)Cc2cc(Br)c(O)c(c2)Oc2ccc(cc2Br)C/C1=N\\O", "inhibition": "inactive"}
{"QUERY_SMILES": "O=C1N/C=C/c2ccc(c(Br)c2)Oc2cc(cc(Br)c2O)CCNC(=O)/C(=N/O)Cc2ccc(c(Br)c2)Oc2cc(cc(Br)c2O)C/C1=N\\O", "inhibition": "inactive"}
{"QUERY_SMILES": "O=C1N/C=C/c2ccc(c(Br)c2)Oc2cc(cc(Br)c2O)CCNC(=O)/C(=N/O)Cc2cc(Br)c(c(Br)c2)Oc2cc(cc(Br)c2O)C/C1=N\\O", "inhibition": "inactive"}

---

# MEASUREMENT_TARGET: Sterol O-acyltransferase 2 (Homo sapiens) (UniProt O75908)
# Sequence (O75908 whole entry): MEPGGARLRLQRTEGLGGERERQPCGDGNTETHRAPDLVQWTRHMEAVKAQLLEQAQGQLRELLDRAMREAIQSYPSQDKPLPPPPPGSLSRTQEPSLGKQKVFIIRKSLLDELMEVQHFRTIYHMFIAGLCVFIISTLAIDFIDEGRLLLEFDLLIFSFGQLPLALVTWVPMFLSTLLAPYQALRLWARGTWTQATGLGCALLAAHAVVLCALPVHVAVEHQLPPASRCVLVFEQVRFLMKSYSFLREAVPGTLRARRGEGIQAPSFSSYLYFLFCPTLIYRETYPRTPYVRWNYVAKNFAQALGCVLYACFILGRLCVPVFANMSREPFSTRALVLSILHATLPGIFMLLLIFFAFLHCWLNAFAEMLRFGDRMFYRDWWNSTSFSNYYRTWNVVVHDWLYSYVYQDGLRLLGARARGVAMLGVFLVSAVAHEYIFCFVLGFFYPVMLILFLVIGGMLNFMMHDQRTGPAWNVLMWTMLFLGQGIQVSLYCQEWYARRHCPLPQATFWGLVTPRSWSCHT
# PROTOCOL_DETAILS: Inhibition of human ACAT2 expressed in CHO cells at 5 uM using [14C]oleoyl-CoA as substrate
# Type: cell-based
Activity calls are given as the source filed them. No cut-off for these calls is given here.

{"QUERY_SMILES": "O=C1NCCc2ccc(O)c(c2)Oc2ccc(cc2Br)CCNC(=O)/C(=N/O)Cc2cc(Br)c(O)c(c2)Oc2c(Br)cc(cc2Br)C/C1=N\\O", "inhibition": "inactive"}
{"QUERY_SMILES": "O=C1NCCc2cc(Br)c(O)c(c2)Oc2c(Br)cc(cc2Br)CCNC(=O)/C(=N/O)Cc2cc(Br)c(O)c(c2)Oc2c(Br)cc(cc2Br)C/C1=N\\O", "inhibition": "89%"}
{"QUERY_SMILES": "O=C1NCCc2cc(Br)c(O)c(c2)Oc2c(Br)cc(cc2Br)[C@H](O)CNC(=O)/C(=N/O)Cc2cc(Br)c(O)c(c2)Oc2ccc(cc2Br)C/C1=N\\O", "inhibition": "inactive"}
{"QUERY_SMILES": "O=C1NCCc2ccc(O)c(c2)Oc2c(Br)cc(cc2Br)CCNC(=O)/C(=N/O)Cc2cc(Br)c(O)c(c2)Oc2c(Br)cc(cc2Br)C/C1=N\\O", "inhibition": "58%"}
